test: inhibition of PAO1 biofilm formation – strain PAO1, LB-PBS medium, absorbance 600 nm, primary screen (AID 1176); further: test concentration not given here; details: P. aeruginosa PAO1 growth/biofilm, A600, 12 h; higher = more signal
# Lookup of reported z-score keyed by entry
Please respond with just the number, no unit label.

Example results:
Task: Please indicate z-score recorded for COCCCNC(=O)[C@@]1(Cc2ccccc2I)c2ccccc2C(=O)N(Cc2ccccc2Cl)[C@H]1c1ccc(CO)cc1
Result: 0.112

Task: Hello, please tell me recorded z-score for this one: CC(C)C(CO)N1C(=O)[C@@H]2[C@H]3C(=O)OCC=C[C@H]3OC23C=CCN(CCN2CCOCC2)C(=O)[C@@H]13 (some centres undefined)
Result: -0.814

Task: Entry O=C(NCc1ccccc1)[C@]1(Cc2ccccc2)N=C(c2ccc(OCCCO)cc2)O[C@@H]1c1ccccc1 needs its z-score filled in; supply it.
Result: 1.19

Please look at the following compound next.
Task: Identify measured z-score associated with C=C(CCCC)/C(=C/C[C@H](OC(=O)c1ccncc1)c1ccc(CO)o1)c1cc(C(=O)OC)ccc1OC
Result: 0.898

* * *

# reported composite z-score; entries follow
system: Chordin-like protein 2 (CHRDL2); assay: compounds binding chordin-like 2 – biochemical, small-molecule microarray, 635 nm fluorescence, primary screen (AID 1126); conditions: fluorescence 635 nm, higher = more signal;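 further: printed compound slides probed with Chrdl2 protein at 4 µg/mL for 1 h at 4 C; score merges 667 nm emission intensity with signal to noise over three replicate slides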
Form rule: numeric answer, no unit written next to it.

Before answering, review these 5 worked examples.
Task: Look up and report composite z-score, with Chordin-like protein 2 (CHRDL2) as system, for C=CCC(OC(C)=O)[C@@H]1[C@@H](N(Cc2cccc3ccccc23)C(=O)c2ccc(C)cc2)c2cc(OCCCO)ccc2N1C(=O)c1ccc2ccccc2c1 (stereo partly drawn)
Result: 0.224

Task: # lookup: Chordin-like protein 2 (CHRDL2) composite z-score, key = O=C1OCCC=C[C@H]2OC34C=CCN(Cn5nnc6ccccc65)C(=O)[C@H]3N(CCCCCO)C(=O)[C@@H]4C12 (stereo partly drawn)
Result: -0.579

Task: Lab note: record composite z-score of COc1ccc([Si](C)(C)[C@@H]2[C@@H](CC(=O)N3Cc4ccccc4C[C@H]3CO)O[C@]3(C(=O)N(Cc4cccc(N5CCCCC5=O)c4)c4ccccc43)[C@H]2C)cc1 tested on Chordin-like protein 2 (CHRDL2).
Result: 1.28

Task: Check Chordin-like protein 2 (CHRDL2) data and give composite z-score for [N-]=[N+]=NCc1ccccc1C[C@@]1(C(=O)NCCN2CCOCC2)N=C(c2ccc(OCCCO)cc2)O[C@@H]1c1ccccc1CN=[N+]=[N-] .
Result: 0.139

Task: For Chordin-like protein 2 (CHRDL2), give the measured composite z-score of the entry CC(C)CCC[C@@H](C)[C@H]1CC[C@@]2(C)C3=C(CC[C@]12C)[C@@]1(C)CC[C@H](OC(=O)C(C)(C)C)C(C)(C)C1CC3 (stereo partly drawn)
Result: 0.547

New cases:
Task: Give reported composite z-score for COc1ccc([Si](C)(C)[C@@H]2[C@@H](CCO)O[C@]3(C(=O)N(Cc4cccc(N5C(=O)COc6ccccc65)c4)c4ccccc43)[C@H]2C)cc1 (Chordin-like protein 2 (CHRDL2))
Result: -0.117

Task: Fill in: composite z-score on Chordin-like protein 2 (CHRDL2), entry C=CCC(OC(C)=O)[C@@H]1[C@@H](N(Cc2cccc3ccccc23)C(=O)Cc2ccc(F)cc2)c2cc(OCCCO)ccc2N1C(=O)Cc1ccc(OC)cc1 (stereo partly drawn)
Result: 0.0157

Task: Param request: composite z-score | system Chordin-like protein 2 (CHRDL2) | item NC(=O)[C@@H]1[C@H]2C(=O)O[C@H](c3ccccc3)[C@H](c3ccccc3)N2[C@H](c2ccccc2OCCO)[C@@]12C(=O)Nc1ccc(C#CCCO)cc12
Result: -0.68

Task: Provide composite z-score, tested on Chordin-like protein 2 (CHRDL2), for COCCOC(=O)N1C(=O)[C@@]2(c3cc(C#CCNC(N)=O)ccc31)[C@H](c1ccc(OCCO)cc1)N1[C@H](c3ccccc3)[C@H](c3ccccc3)OC(=O)[C@H]1[C@@H]2C(=O)N1CCN(c2ncccn2)CC1 .
Result: 0.908

* * *

assay: probe aDKK1 binding to arrayed compounds – biochemical, biotinylated probe, 635/667 nm fluorescence, primary screen (AID 1099); details: small-molecule microarray, higher = more signal;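 further: score merges 667nm spot fluorescence with signal to noise across triplicate slides; reference of the scale not given here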
// class assignment uses composite z-score with these ranges: I: < -0.05; II: ≥ -0.05 and < 0.4; III: ≥ 0.4

// below: answered compounds
Task: Into which category would you place CCCN1C(=O)[C@@]2(Cc3ccccc3)N=C(c3ccc(OCCCO)cc3)O[C@H]2c2ccccc21 ?
Result: II

Task: Bin? COCCCNC(=O)[C@@H]1c2ccccc2C(=O)N(c2ccc(C)cn2)[C@H]1c1ccc(CO)cc1
Result: I

Task: Which class does COCCOC(=O)N1C(=O)[C@@]2(c3cc(C#Cc4ccc(OC)cc4)ccc31)[C@H](C(=O)N1CCc3cc(OC)c(OC)cc3C1)[C@H]1C(=O)O[C@H](c3ccccc3)[C@H](c3ccccc3)N1[C@@H]2c1ccc(O)cc1 fall in?
Result: I

Task: Category of COc1ccc([Si](C)(C)[C@@H]2[C@@H](CCO)O[C@]3(C(=O)N(Cc4ccccc4)c4ccc(N5C(=O)COc6ccccc65)cc43)[C@H]2C)cc1 , please.
Result: I

Task: Could you place O=C(O)[C@@]1(Cc2ccccc2)COC(c2ccc(OCCCO)cc2)=N1 in its proper category? Many thanks.
Result: III

Task: GET /class?item= O=C(NCc1ccccc1)[C@]1(Cc2ccccc2)N=C(c2ccc(OCCCO)cc2)O[C@@H]1c1ccccc1
Result: III

---
Task: Category of CCOC(=O)C1=CC[C@@H](c2cccc(Br)c2)N(S(=O)(=O)c2ccc(C)cc2)[C@H]1c1ccc([N+](=O)[O-])cc1 , please.
Result: III

Task: Which class is correct for the following compound? [N-]=[N+]=NCc1ccccc1[C@H]1OC(c2ccc(OCCCO)cc2)=N[C@@]1(Cc1ccccc1N=[N+]=[N-])C(=O)NCCN1CCOCC1
Result: III

* * *

assay: plasmodial surface anion channel blockers, osmotic lysis – cell-based, P. falciparum Indochina, OD700, 1 h, primary screen (AID 1154); settings: P. falciparum Indochina infected RBC osmotic lysis, called active from +8 up or from −8 down
The source made the active and inactive calls.
The reply should be one of these categories: TRUE = active, FALSE = inactive

Solved entries:
Task: Answer briefly: the call reported for COCCCNC(=O)[C@@]1(Cc2ccccc2N=[N+]=[N-])N=C(c2ccc(OCCCO)cc2)O[C@H]1c1ccccc1CN=[N+]=[N-] in this assay.
Result: TRUE

Task: In this assay, the call recorded for CC(C)C[C@@H]1NC(=O)[C@@H]2C[C@H](C(=O)NCCCC[N+](C)(C)C)[C@H](c3cccc(OCCO)c3)N2C1=O was what?
Result: FALSE

Task: What outcome does the record of this test show for CCN(CC)c1ccc(N2CC=CC34O[C@@H]5/C=C\CCCOC(=O)C5[C@H]3C(=O)N(CCCCCCO)[C@@H]4C2=O)cc1 (stereo not given in full) ?
Result: FALSE

Task: Call for entry O=C1CSC(c2cccc([N+](=O)[O-])c2)N1c1ccccc1 (stereo not given) :
Result: FALSE

Task: Check the results log: what was the call for Cc1ccccc1C(O)C1C=CC2C(=O)N(C)C(=O)C2N1Nc1ccc([N+](=O)[O-])cc1[N+](=O)[O-] (stereo not given) ?
Result: FALSE

***
Task: Hi, do you know how O=C1C2C=CC(C(O)c3cccc4ccccc34)N(Nc3ccccc3)C2C(=O)N1c1ccccc1 (stereo not given) came out in this test?
Result: TRUE

* * *

test: probe aNog binding to arrayed compounds – biochemical, biotinylated probe, 635/667 nm fluorescence, primary screen (AID 1115); settings: small-molecule microarray, higher = more signal;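 further: probe is biotinylated aNog protein used at 0.15 µg/mL for 1 h at 4 C; z-score combines 667 nm fluorescence of each spot with its signal to noise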
Binary classification by composite z-score, with 0.1 as an inclusive lower bound for Met; all other cases are Not met.

Solved entries (count: 4):
Task: Answer whether composite z-score of CCOC(=O)C[C@H]1[C@H](OC(=O)c2ccc(C(=O)c3ccccc3)cc2)[C@@H](NC(=O)C2CCCCC2)c2cc(OCCCO)ccc2N1C(=O)Cc1ccc(OC)cc1 is greater than or equal to 0.1.
Result: Not met

Task: Assess whether reported composite z-score for COC(=O)c1c(CC[C@@H](CO)NC(=O)N[C@@H](C)Cn2cc(C3(O)CCCC3)nn2)oc(C(C)=O)c1C(=O)OC sits at 0.1 or higher.
Result: Not met

Task: Answer whether composite z-score of Cc1ccccc1C(O)C1C=CC2C(=O)N(C)C(=O)C2N1Nc1ccc([N+](=O)[O-])cc1[N+](=O)[O-] (stereo not drawn) is greater than or equal to 0.1.
Result: Not met

Task: Given the entry CC(C)c1ccc(NN2C(C(O)c3cccs3)C=CC3C(=O)N(c4ccccc4)C(=O)C32)cc1 (stereo not drawn) , answer whether its composite z-score meets or surpasses 0.1.
Result: Met

Now examine the next entry.
Task: Answer whether composite z-score of CCCC=C(CCC)[C@@H](NC(=O)Cc1ccccc1)c1ccc(C(=O)OC)cc1 is greater than or equal to 0.1.
Result: Met
